src = the supplement of paper PMC9170038

Provide the recorded apparent KD of MS2 coat protein for the entries that follow.
- Test system: MS2 coat protein
- METHOD_SUMMARY: apparent KD of MS2 coat protein; designed switch direction (-1 OFF switch, 1 ON switch): -1; higher = weaker reporter binding
- RUN_PARAMETERS: input ligand: none
Please respond with the number in nM and leave the unit unwritten.

# input What measured apparent KD of MS2 coat protein is associated with AAGCCUCAAGUUAGGAUAUUAAUAAGGCAAAUUAUUAAGAAGGGACAUGAGGAUCACCCAUGUAAAAUUCUCAC [Biedredi] (Eterna round: R97, puzzle: Brourd's mod of Exclusion 4) on MS2 coat protein?
# output 57.5

# input # repeat for AGUCAGGCGGUAGGAUAUCCAAACCGAGUGACCCUUUCAUAACAUGAGGAUCACCCAUGUCGGUGGGAGAAGGGCCGUACGGCG [JL ViennaUCT Atra mod 2] (Eterna round: R96, puzzle: Exclusion NG 2)
# output 343

# input Entry to check: AAACCCUGAGGAUAUACAUAACAACAAAUCCUCACGUGCCAACAUGAGGAUCACCCAUGUAGAAGGCAGGCCAA [Mod R3 Insanara 5 - Jieux - Exclusion 2] (Eterna round: R97, puzzle: Exclusion 2)
# output 15.8

# input Also, UCUUAUAGAGGAUAUACAGAUUAUUACAUGAGGAUCACCCAUGUUCUUCAAUGUAUAUAUGUAGAAGGCUAAGGAU [Mat - Exclusion 5 - JL Mod - D9] (Eterna round: R97, puzzle: Exclusion 5) please.
# output 111

====

- System: MS2 coat protein
- METHOD_SUMMARY: apparent KD of MS2 coat protein; designed switch direction (-1 OFF switch, 1 ON switch): -1; higher = weaker reporter binding
- RUN_PARAMETERS: input ligand: FMN 200 uM
OBSERVED_PROPERTY: apparent KD of MS2 coat protein (nM)
Report only the number, with the unit nM understood.

# input Look up apparent KD of MS2 coat protein for this sequence: GGUCCUGAUGAUUUCCUAUACAUGAGGAUCACCCAUGUAUGUUUAUUUUGUUUUUAGCUUUUUGGUCGUCAAUAAUA [Mod-Hoo-honey-3] (Eterna round: R97, puzzle: Sensor, turn-off variant 1)
# output 43.3

# input UAUUAGCAAGUAAGAUCCCACAUGAGGAUCACCCAUGUGCUCGUCAUAUCAGGUACGGAGCGGAAACUCCCGAUAUG [Sensor-V1 #89] (Eterna round: R97, puzzle: Sensor, turn-off variant 1) ?
# output 106

# input What do you have for UAUUAGCAAGUGAGGUCCCACAUGAGGAUCACCCAUGUGCUCGUCUUAUAAGGUACUGUGACGAUAGUCACGGUACC [Mat - Sensor, turn-off var - Eli Mod - D51] (Eterna round: R97, puzzle: Sensor, turn-off variant 1) ?
# output 45.4

# input What about AUCGGCUCAGUCAGGAUAUGAUUGAAUCGUUGCAAUUAGAAGGGACAUGAGGAUCACCCAUGUGCGGUGCGGUC [Eternabot (L1) Solution 27] (Eterna round: R97, puzzle: Brourd's mod of Exclusion 4) ?
# output 178

====

- System: MS2 coat protein
- METHOD_SUMMARY: apparent KD of MS2 coat protein; designed switch direction (-1 OFF switch, 1 ON switch): -1; higher = weaker reporter binding
- RUN_PARAMETERS: input ligand: FMN 200 uM
Exercise: state measured apparent KD of MS2 coat protein for each of the sequences provided.
Numbers only here, please. The scale is nM.

# input Would you kindly share the measured apparent KD of MS2 coat protein for CGGGCCCAGGCAGGAUAUGUACAGCCACAAAACCCUCGUGUGAGGGACAUGAGGAUCACCCAUGUAUAGAAGGGCCAGCGCGUA [Xeditein] (Eterna round: R96, puzzle: Exclusion NG 2) ?
# output 26.3

# input And for UACAUGAGGAUCACCCAUGUUUUGUCGUGUAUGGUAUUUAUCUAGGAUAUCAAUUUAGUUAUGUAUGAGAAGGAGAAUAUUAAU [JMF's solution 78] (Eterna round: R96, puzzle: Exclusion NG 3) ?
# output 43.7

# input Check AGAAAUCUGUAGGAUAUGUUGAACACCGUGUACACAGAAGGGCAGACAUGAGGAUCACCCAUGUGGUGGGCCAG [Eternabot (L1) Solution 91] (Eterna round: R97, puzzle: Exclusion 6) too.
# output 576

# input Also UAAACAAGCUAAAGAUCCUACAUGAGGAUCACCCAUGUGCUCGUCUUAUAAGGUACUGUGACGAAAGUCACGGUACC [JL TOV1 3.00] (Eterna round: R97, puzzle: Sensor, turn-off variant 1) ?
# output 488

# input And then AUAUAGAUGGUCAGGAUAUGCUAGUGAUAACAGUAGCAGAAGGGACAUGAGGAUCACCCAUGUGGAUAGCGCAC [Brourd's EX4 #6] (Eterna round: R97, puzzle: Brourd's mod of Exclusion 4) , what is it?
# output 123

# input What about ACUGGUGCAGGAUAUACAAUCGUGCUUCGGCACGUAAGGUCACAUGAGGAUCACCCAUGUAGAAGGGCACCAGU [E2/2-D1] (Eterna round: R97, puzzle: Exclusion 2) ?
# output 177

# input Please answer likewise for UACAUGAGGAUCACCCAUGUUUUGUCGUGUAUGGUAUUUAUCUAGGAUAUCAAUUUAGUUACUUAUGAGAAGGAGAAUAUUAAU [JMF's solution 77] (Eterna round: R96, puzzle: Exclusion NG 3)
# output 33.8

# input Another sequence: GAGUACAGAGGAUAUACAUGAGGAUCACCCAUGUGUUUCAGCUAGGAGACUAGCGAAAGUAGAAGGCUGUACUG [salish99_ex3_r4_006] (Eterna round: R97, puzzle: Exclusion 3)
# output 23.4

# input Same question, UCUCUUGGGCAAGGAUAUCCUGUGCGGUUCCGGCUCGUGUCUGUCACAUGAGGAUCACCCAUGUGGGAGAAGGUGCCUGCGGUC [Design 81] (Eterna round: R96, puzzle: Exclusion NG 2) this time
# output 13.6

====

- Test system: MS2 coat protein
- METHOD_SUMMARY: apparent KD of MS2 coat protein; designed switch direction (-1 OFF switch, 1 ON switch): 1; higher = weaker reporter binding
- RUN_PARAMETERS: input ligand: FMN 200 uM
Assignment: determine reported apparent KD of MS2 coat protein for the given sequences.
Just the number please, in nM, no unit attached.

# input Please state recorded apparent KD of MS2 coat protein (tested on MS2 coat protein) of UAAAGAAAGCGAGGAUAUAGCCCAUGUGAAGAACUAGAAGGCGCAGACAUGAGGAUCACCCAUGUGUUCAUGAGGAGGAGGACA [Kawasakiqro] (Eterna round: R96, puzzle: Same State NG 1)
# output 88.6

# input // repeat for UUAAUUUACUGAGGAUAUCGUGUCGACUGAGUUGACAUGAGGAUCACCCAUGUGAGAAGUGGUAUCGAGAAGGCAGUAUUCAUA [JR_SSNG2_Sub023] (Eterna round: R96, puzzle: Same State NG 2) and report
# output 16.1

# input Again, but for AAGAAACAUGAGGAUCACCCAUGUCGAGAGAGACGAGGAUAUCUGAAUCGAUUAGAUUACGGAGAAGGCGUGAAAA [Same State 1.2 (Same State of Confusion2 - minimal change )] (Eterna round: R96, puzzle: Same State 1)
# output 22.1

# input Another sequence to look at: UUGAAGAAUUAAGGAUAUCGAGUACAUAUGUUAAACAUGAGGAUCACCCAUGUGGGUUGCGGUAUCGAGAAGGUAAAUUACAAG [JL SSNG2 1.42] (Eterna round: R96, puzzle: Same State NG 2)
# output 30.2

====

- Tested on: K4 kissing-loop RNA reporter;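 also: bound reporter read as fluorescence of individual clusters on recovered sequencing chips by microscopy, with normalized cluster intensities fitted with a binding model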
- METHOD_SUMMARY: apparent KD of K4 kissing-loop reporter; higher = weaker reporter binding
- RUN_PARAMETERS: Eterna round: R107; input ligand: tryptophan 2.4 mM
OBSERVED_PROPERTY: apparent KD of K4 kissing-loop reporter

# input Quick check: apparent KD of K4 kissing-loop reporter on K4 kissing-loop RNA reporter, item AAGUGUGUGGCGGCCGCCACUAGAAUCCAGUGAUGUUGGAGUUAUCAUAUAAUUGAUAAUCAACAUAGGACCGGGCCAUAUAGAA [Same State - Tryptophan B (Freestyle 6)] ?
# output 416 nM

# input Likewise for AGUGAUGUGGGAAGGAGCGGUAUAAGAAUUCAGUGAUGUUGAAGUGUUGCUGUAAUAAAGAGCCAGGUAGGUCGCCUAGAUGUUA [KL-XARG B30] ?
# output 562 nM

# input Request: AGCUAUUAGACGGCCGCCACUUGCUCUGAGACCUGACAUGGAACCAGUGAUGUUGGUUUGCGUGUAAGGACCGGGUUUGGUGGCG [Tiesbi]
# output 104 nM

# input UGUAAGCGCGUAGAUACCAGCAGACGAGUGAUGUUCGAGAGAUUAAGGAAAAGAAAGUAAUGCCCUUGGCAGCUAAUCAUAAGCG [whbob_Ex_Theo_B_sa94] , same question.
# output 174 nM

# input Same question for GUCAUGCGUUCAGGAUAUGGACCAAUUUAUAUUGCUUAUGCUGUGCCCUGUAUGGCAGUGAUGUUGCCAGAAGGGAGGGCAUGCA [Erbionvean] please.
# output 102 nM

# input Another sequence to look at: CGGAGUGAUGUUCCGUUAAUUAAUUAUUUACGAGGACCGGUACGGCCGCCACUCGAUUUUGCUUUUAUUUAAUGUUUGGAAAUUU [JR_SSTryptoA_Sub006]
# output 101 nM

# input Next record, please: CUAUGGAAACAUAGUGAGCGGGAAACCGAUACCAGUAUGGAAACAUACCCUUGGCAGCGGAAUGCUCAAACGGAGUGAUGUUCCG [Theophylline A K4 22]
# output 240 nM

# input Now the sequence CGAUGGAUGGCAGGAUAUAGACAUUGAGUGAUGUUCGAUGAUUAUCCAUAUUCCCGUCACCUAAGACUAGAAGGGCCAUCCAUCG
# output 198 nM

# input Now the sequence GCGCGGGUCAGUGAUGUUGACCCUCGGAGACGAGGACCGGUACGGCCGCCACUCGUCCGCGCAGCUGAGGCAAAAGCCUCGGCAA [Omei KL Tryp A SS B v5]
# output 103 nM

# input For CGCACACUUGUUGAUACCAGAAGCCGACCGGAAACAUCAUUGAGUGAUGUUCAAGCUGUUUUCCCUUGGCAGCAAACGAGUGGUC [theeternabot_exclusion_KL_Theo_B_22] then?
# output 138 nM

# input Can you check UGCGCUAUGUCCUAAAAUGUCCUCCGGGAUACCAGAGUCUUUUUAUUCCCUUGGCAGCUUGAGUGAUGUUUGAUGCCGUUCUUGU [nnbvmullin] next?
# output 415 nM

# input Likewise for UGUGAUGAGUAGAGUGAUGUUUUGAAGGAUACCAGAGUGUUGUUAUUCCCUUGGCAGCUUGAGUGAUGUUUGAUGUUGUUGUUGU [rcrrmullin] ?
# output 211 nM
